Biological target: T1, biotinylated recombinant human IL-12Rβ2 (human, UniProt Q99665 24-622, random biotinylated)
T1 construct: Recombinant protein produced in-house, biotinylated; also called hIL-12RB2; human IL-12RB2
T1 sequence: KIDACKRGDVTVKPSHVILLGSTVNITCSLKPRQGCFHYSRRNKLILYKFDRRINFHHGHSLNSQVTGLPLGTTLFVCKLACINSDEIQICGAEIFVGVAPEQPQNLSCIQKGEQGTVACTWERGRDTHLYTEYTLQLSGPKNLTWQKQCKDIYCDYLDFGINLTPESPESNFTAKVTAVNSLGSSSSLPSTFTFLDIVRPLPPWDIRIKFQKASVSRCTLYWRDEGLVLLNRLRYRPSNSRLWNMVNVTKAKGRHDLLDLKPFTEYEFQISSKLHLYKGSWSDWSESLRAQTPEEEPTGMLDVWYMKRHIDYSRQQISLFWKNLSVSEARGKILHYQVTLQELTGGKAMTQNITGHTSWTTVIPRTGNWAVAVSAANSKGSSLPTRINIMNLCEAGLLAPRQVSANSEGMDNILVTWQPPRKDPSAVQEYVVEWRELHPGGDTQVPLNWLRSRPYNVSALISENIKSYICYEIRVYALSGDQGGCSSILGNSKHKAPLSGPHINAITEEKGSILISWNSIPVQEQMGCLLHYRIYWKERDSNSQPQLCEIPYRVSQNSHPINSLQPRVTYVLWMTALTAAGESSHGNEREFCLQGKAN
Experiment: ELISA, periplasmic extract on biotinylated hIL-12Rβ2, signal over control wells
Would you kindly list ELISA binding hIL-12RB2/control for each of these binders?
Give just the numeric value; ratio need not be written.

ELISA binding hIL-12RB2/control lookup needed for anti-IL-12Rβ2 VHH clone 20518 (VHH, not shown: small tags and cut ends, tested as periplasmic extract; also called 2CRMS15) VHH: QVQLQESGGGLVQPGGSLRLSCTASGSIFAIDDMYWYRQAPGRQREFVAYITATNSANYLDSVNGRFTISRDNAKNSVYLQMNSLKPEDTAVYYCNAKQIVGFQIDEYWGQGTQVTVSS , thanks. 1.01

ELISA binding hIL-12RB2/control lookup needed for anti-IL-12Rβ2 VHH clone 20372 (VHH, not shown: small tags and cut ends, tested as periplasmic extract; also called 2CRH82) VHH: QVQLQESGGGLVQAGGSLRLSCAASARTESMYAMAWFRQAPGKEREIVAGIIQSGGTTYISDYMKGRFSIDRGNAENTVYLQMDSLKPEDTAVYSCAAKVSSGTPSDIQISQSRWYDHWGQGTQVTVSS , thanks. 16.1

ELISA binding hIL-12RB2/control lookup needed for anti-IL-12Rβ2 VHH clone 20458 (VHH, not shown: small tags and cut ends, tested as periplasmic extract; also called 3CRM45) VHH: QVQLQESGGGLVQAGGSLRLSCTASGSIFAIDDMYWYRQAPGKEREFVAYITATNSANYLDSVNGRFTISRDNAKNSVYLQMNSLKPEDTAVYYCNAKQIVGFQIDEYWGQGTQVTVSS , thanks. 1.47

ELISA binding hIL-12RB2/control lookup needed for anti-IL-12Rβ2 VHH clone 20391 (VHH, not shown: small tags and cut ends, tested as periplasmic extract; also called 3CRH93) VHH: QVQLQESGGGLVQAGGSLRLSCAASGRTVDSYAMGWFRQTPGKEREFVAASWGGGSTYYADSVKGRFTISRDNVKNTMYLQMDSLKPEDTAVYYCAAGPTYYSGPINDNWEGRYDSWGQGTQVTVSS , thanks. 3.45

ELISA binding hIL-12RB2/control lookup needed for anti-IL-12Rβ2 VHH clone 20358 (VHH, not shown: small tags and cut ends, tested as periplasmic extract; also called 3CAH34) VHH: QVQLQESGGGSVQPGGSLRLSCGASGFTFSSFGMHWFRQAPGKGQEWAATISSSGGTTYYSDSVKGRFTISRDNAKNTLYLQMNSLKPEDTALYYCARDVTGAVRGQGTQVTVSS , thanks. 5.01

ELISA binding hIL-12RB2/control lookup needed for anti-IL-12Rβ2 VHH clone 20505 (VHH, not shown: small tags and cut ends, tested as periplasmic extract; also called 3CAM4) VHH: QVQLQESGGGSVQAGGSLRLSCAASGRTFSSYGMGWFRQAPGKEREFVAAISRDARITDYADSVKGRFTISRDNAKNTAYLEMNSLNPEDTAVYFCAAAYTYSGSHYVTARSSDYHSWGQGTQVTVSS , thanks. 1.07

ELISA binding hIL-12RB2/control lookup needed for anti-IL-12Rβ2 VHH clone 20509 (VHH, not shown: small tags and cut ends, tested as periplasmic extract; also called 3CAM30) VHH: QVQLQESGGGLVQAGGSLRLSCAAAGRTFSSYGMGWFRQAPGKERDFVAAISRDARITDYADSVKGRFTISRDNAKNTAYLQMNSLNPEDTAVYFCAAAYTYSGSHYVTARSSDYHTWGQGTQDTVSS , thanks. 1.31

ELISA binding hIL-12RB2/control lookup needed for anti-IL-12Rβ2 VHH clone 20408 (VHH, not shown: small tags and cut ends, tested as periplasmic extract; also called 3CAHS172) VHH: QVQLQESGGGSVQAGGSLRLSCGASGFTFSSFGMHWFRQAPGKGQEWVATISSSGGTTYYSDSVKGRFTISRDNAKNTLYLQMNSLKPEDTALYYCARDVTGAVRGQGTQVTVSS , thanks. 3.49
